molecular target: GlcNAc(b1-3)Fuc; assay: glycan array binding signal (z-score within array); higher = stronger binding; settings: glycan notation: IUPAC condensed, linker removed
The entries come from a sample that favours the strongest signals as a whole.
ENDPOINT NAME: glycan array binding signal (z-score)
Respond using a number only.

{"BINDER": "FGFR2-Fc (protein) MVNVTDAISSGDDEDDTDGAEDFVSENSNNKRAPYWTNTEKMEKRLHAVPAANTVKFRCPAGGNPMPTMRWLKNGKEFKQEHRIGGYKVRNQHWSLIMESVVPSDKGNYTCVVENEYGSINHTYHLDVVERSPHRPILQAGLPANASTVVGGDVEFVCKVYSDAQPHIQWIKHVEKNGSKYGPDGLPYLKVLKHSGINSSNAEVLALFNVTEADAGEYICKVSNYIGQANQSAWLTVLPKQQAPGREKEITASPDYLETRPLEQKLISEEDLAANDILDYKDDDDKV", "ENDPOINT NAME": "glycan array binding signal (z-score)", "MEASURED NUMBER": 0.448}

Please turn your attention to the following entry.
Query string: Field request: glycan array binding signal (z-score) | item: RobpsCRA (Robinia pseudoacacia) (protein) IKGGYWYSGSGLAVSDINPSHFTHLFCAFADLDPNTNKLTISSSNAAAFSTFTQTVRAKNPSVKTLLSIGGGGGRALAAVFANMASQASRRKSFIDSSIQLARRNNFHGLDLDWEYPSSDIDKTNFASLIREWRAAVATESSTSGTPALLLSAAVGGSDQITPLKYYPGEAIANNLDWVNVMTYDLYTSDSYPTLTQPPAPLFYPRGIFSADEGITKWIQSGVPESKLALGLPFYGFKWRLSDPNNHGLFAPATQGLGAVKYKDIVNTGGQVEFDSTYVTNYCFKGTDWYGYDDTQSISAKVAYAKQRGLFGYFAWHIEQDSNWALS
Result string: -0.426
